B1: EHEE_rd3_0053 (parent)
chain: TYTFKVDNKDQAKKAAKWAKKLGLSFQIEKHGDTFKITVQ

variants of: B1; test: folding stability dG (cDNA display proteolysis); higher = more stable; details: PBS, room temperature
Give y when the value for folding stability dG is at least 2 kcal/mol. Give n when it is less.

Answered cases to consult:
G32A: n
F26N: n
K17V: y
G23F: n
E29N: n
Q11W: n
Y2I: y
F26H: n
T1E: y
G23I: n

Q: Answer whether folding stability dG of H31W is greater than or equal to 2 kcal/mol.
Result: y

Q: Is reported folding stability dG greater than or equal to 2 kcal/mol here: E29V
Result: y

Q: Evaluate D10K : folding stability dG at minimum 2 kcal/mol?
Result: y

Q: Check this variant for folding stability dG at or above 2 kcal/mol: A16V
Result: y

Q: Is it the case that K36W has folding stability dG reaching or exceeding 2 kcal/mol?
Result: y

Q: hey, is folding stability dG for this one >= 2 kcal/mol? V39I
Result: y

Q: Hello, I need to know if K30W has measured folding stability dG not below 2 kcal/mol. Thanks!
Result: n

Q: Confirm if folding stability dG reported for the variant S25Q is 2 kcal/mol or above.
Result: y

Q: Is folding stability dG for K21L at or above 2 kcal/mol?
Result: y
